STUDY_TARGET: recombinant human Meningioma Expressed Antigen 5 (MGEA5), also referred to as O-GlcNAcase (OGA) (Homo sapiens, UniProt O60502)
Construct: Full length OGA enzyme was purchased at OnGene (cat #TP322411); purchased OnGene (so in the source)
Sequence (O60502 1-916): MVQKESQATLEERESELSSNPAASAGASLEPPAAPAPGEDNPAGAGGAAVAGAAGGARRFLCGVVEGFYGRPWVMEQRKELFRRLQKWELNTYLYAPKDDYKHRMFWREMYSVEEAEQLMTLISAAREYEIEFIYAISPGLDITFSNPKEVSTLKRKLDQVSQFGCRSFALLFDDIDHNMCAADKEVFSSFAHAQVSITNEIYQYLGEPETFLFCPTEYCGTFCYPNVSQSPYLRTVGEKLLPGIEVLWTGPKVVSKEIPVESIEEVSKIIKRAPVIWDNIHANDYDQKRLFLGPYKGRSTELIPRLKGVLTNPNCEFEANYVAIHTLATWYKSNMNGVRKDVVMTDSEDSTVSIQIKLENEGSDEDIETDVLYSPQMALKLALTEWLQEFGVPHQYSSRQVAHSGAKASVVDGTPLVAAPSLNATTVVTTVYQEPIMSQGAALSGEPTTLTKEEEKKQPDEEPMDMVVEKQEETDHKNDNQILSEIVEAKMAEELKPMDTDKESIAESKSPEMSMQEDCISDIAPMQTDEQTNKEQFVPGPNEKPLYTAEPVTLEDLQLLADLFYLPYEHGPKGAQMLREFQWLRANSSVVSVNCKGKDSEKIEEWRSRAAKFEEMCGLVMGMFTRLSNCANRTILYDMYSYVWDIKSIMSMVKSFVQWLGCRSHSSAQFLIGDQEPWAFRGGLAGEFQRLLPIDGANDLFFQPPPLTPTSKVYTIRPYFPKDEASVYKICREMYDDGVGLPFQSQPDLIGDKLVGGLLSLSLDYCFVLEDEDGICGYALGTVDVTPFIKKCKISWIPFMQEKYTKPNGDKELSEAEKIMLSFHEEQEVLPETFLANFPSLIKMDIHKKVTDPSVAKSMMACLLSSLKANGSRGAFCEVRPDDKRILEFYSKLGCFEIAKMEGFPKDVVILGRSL
EXPERIMENT_SUMMARY: OGA biochemical assay (inhibition of FM-GlcNAc hydrolysis, fluorescence)
CONDITIONS_USED: read-out: Enzymatic hOGA, pIC50 (converted)
The reader will find reported IC50 values listed item by item below.

COMPOUND: Cc1cc(CC2(F)CCCN([C@H](C)c3nc4c(cc3F)OCCO4)C2)cc(C)n1 (single isomer, unassigned)
IC50 / µM: 0.00631
//
COMPOUND: Cc1cc(OC[C@H]2CCCN(C(C)c3nc4c(cc3F)CCO4)C2)cc(C)n1 (single isomer, unassigned) [Product 179]
IC50 / µM: 0.2
//
COMPOUND: Cc1cc([C@@H]2CCCN([C@H](C)c3ccc4c(c3)OCC4)C2)cc(C)n1 (single isomer, unassigned)
IC50 / µM: 0.126
//
COMPOUND: Cc1cc(NCC2CCCN(C(C)c3cc4c(cc3F)OCCO4)C2)cc(C(F)(F)F)n1 (stereo not shown)
IC50 / µM: 0.00525
//
COMPOUND: Cc1cc(OC[C@H]2CCCN([C@@H](C)c3nc4c(cc3F)OCCO4)C2)cc(C)n1
IC50 / µM: 0.00158
//
COMPOUND: Cc1cc(C2CCCN(C(C)c3cc4c(cc3F)OCCO4)C2)cc(C(F)(F)F)n1 (stereo not shown)
IC50 / µM: 0.01
//
COMPOUND: Cc1cc(C[C@H]2CCCN(C(C)c3cnc4c(c3)OCCN4C)C2)cc(C)n1 (mixture of isomers)
IC50 / µM: 0.0158

Where these numbers come from: patent US20210300943A1
